Molecular target: UniProt:Q14973
Sequence (Q14973 whole entry): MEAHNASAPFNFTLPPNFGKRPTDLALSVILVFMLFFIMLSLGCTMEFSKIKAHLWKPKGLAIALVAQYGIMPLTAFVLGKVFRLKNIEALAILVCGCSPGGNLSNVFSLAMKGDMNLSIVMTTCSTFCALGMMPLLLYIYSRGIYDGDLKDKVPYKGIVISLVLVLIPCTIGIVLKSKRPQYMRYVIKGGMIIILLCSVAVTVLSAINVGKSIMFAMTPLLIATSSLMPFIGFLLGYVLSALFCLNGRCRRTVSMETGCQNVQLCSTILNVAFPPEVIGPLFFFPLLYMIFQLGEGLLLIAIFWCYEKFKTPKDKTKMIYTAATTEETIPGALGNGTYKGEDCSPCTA
Experiment: Screening taurocholate uptake assay (96-well, [14C]taurocholate, 10 µM drug)
Settings: Prestwick library screen, 10 µM drug; B-score of taurocholate uptake
Structures can show the parent of a compound that is named as a salt.
Label rule, in plain words: B-score functional assay of 1 and up is yes, under 1 is no.

Please review the following examples before continuing.
compound | tested-system | cat
CN1CCN(CC(=O)N2c3ccccc3C(=O)Nc3cccnc32)CC1 [Pirenzepine dihydrochloride] | UniProt:Q14973 | no
CS(=O)(=O)O.OC(CCN1CCCCC1)(c1ccccc1)c1ccccc1 [Pridinol methanesulfonate salt] | UniProt:Q14973 | yes
CN1CCCCC1CCN1c2ccccc2Sc2ccc([S+](C)[O-])cc21 (stereo not drawn) [Mesoridazine besylate] | UniProt:Q14973 | yes
CCN1CCC[C@H]1CNC(=O)c1c(O)c(Cl)cc(Cl)c1OC [Raclopride] | UniProt:Q14973 | no
COC(=O)Nc1nc2ccc([S+]([O-])c3ccccc3)cc2[nH]1 (stereo not drawn) | UniProt:Q14973 | no
CCCCNc1ccc(C(=O)OCCOCCOCCOCCOCCOCCOCCOCCOCCOC)cc1 [Benzonatate] | UniProt:Q14973 | no
COc1cc(C(=O)N2CCOCC2)cc(OC)c1OC | UniProt:Q14973 | no
CCCCc1ccc2[nH]c(NC(=O)OC)nc2c1 | UniProt:Q14973 | yes

Turning now to a further compound:
Please indicate if the recorded B-score functional assay for CN1CCCC(n2nc(Cc3ccc(Cl)cc3)c3ccccc3c2=O)CC1 (stereo not drawn) [Azelastine HCl] meets or exceeds 1.
yes
